The reported measurements were obtained from patent US20260116991A1.

# TESTED_SYSTEM: T1, polypeptide GC3pep (human)
# T1 construct: also called membrane proximal polypeptide GC3pep
# T1 peptide: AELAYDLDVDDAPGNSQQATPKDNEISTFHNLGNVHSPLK
# ASSAY_METHOD_TEXT: ELISA, GC3pep coated, antibody 0.01 nM;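 also: bound antibody detected with an HRP-conjugated secondary antibody and TMB substrate, color reaction stopped with HCl before reading absorbance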
Each item that follows carries a reported OD450 nm.

Example entries and their recorded answers appear below.
# input Given F1.153.1 (antibody, human IgG1, kappa, V domains shown, human-murine chimeric antibody) VH: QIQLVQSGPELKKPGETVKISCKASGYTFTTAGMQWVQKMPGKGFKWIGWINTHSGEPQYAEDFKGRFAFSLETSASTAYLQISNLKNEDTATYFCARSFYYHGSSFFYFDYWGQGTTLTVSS VL: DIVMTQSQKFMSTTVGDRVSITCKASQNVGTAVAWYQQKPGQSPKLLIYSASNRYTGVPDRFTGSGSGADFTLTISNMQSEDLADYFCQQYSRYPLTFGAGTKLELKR , state its recorded OD450 nm.
# output 0.04 OD450 nm

# input Entry under review: F2.92.1 (antibody, human IgG1, kappa, V domains shown, human-murine chimeric antibody) VH: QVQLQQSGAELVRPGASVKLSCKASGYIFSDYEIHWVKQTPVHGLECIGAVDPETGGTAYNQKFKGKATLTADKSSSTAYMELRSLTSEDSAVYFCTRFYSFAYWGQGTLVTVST VL: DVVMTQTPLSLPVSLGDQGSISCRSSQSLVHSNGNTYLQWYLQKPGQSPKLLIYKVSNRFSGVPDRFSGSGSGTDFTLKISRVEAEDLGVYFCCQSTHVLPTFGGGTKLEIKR . Reported OD450 nm?
# output 0.15 OD450 nm

Note: attention shifts to another entry.
# input # lookup: OD450 nm of F1.83.6 (antibody, human IgG1, kappa, V domains shown, human-murine chimeric antibody) VH: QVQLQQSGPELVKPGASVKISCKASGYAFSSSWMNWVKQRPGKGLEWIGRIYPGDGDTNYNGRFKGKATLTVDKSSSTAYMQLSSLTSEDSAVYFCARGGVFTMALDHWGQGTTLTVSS VL: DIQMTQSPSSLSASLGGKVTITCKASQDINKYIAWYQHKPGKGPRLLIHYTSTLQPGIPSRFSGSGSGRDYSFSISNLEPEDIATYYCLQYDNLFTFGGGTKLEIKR
# output 0.05 OD450 nm
